Tested on: EJM (Plasma Cell Myeloma);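 note: after 72 h of two-drug dosing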
Assay: Bliss excess, mean over the matrix (fraction); higher = more synergy
Would you mind telling me the reported Bliss excess of each entry?
Simply state the number, no unit and no words.

Consider C=CCn1c(=O)c2cnc(Nc3ccc(N4CCN(C)CC4)cc3)nc2n1-c1cccc(C(C)(C)O)n1 [AZD1775] + O=C(c1cc(Cc2n[nH]c(=O)c3ccccc23)ccc1F)N1CCN(C(=O)C2CC2)CC1 [Olaparib] (first compound max 1 µM, partner max 10 µM) . Its measured Bliss excess is -0.0429

Consider Cn1cnc2c(F)c(Nc3ccc(Br)cc3Cl)c(C(=O)NOCCO)cc21 [Selumetinib] + C[C@@H]1COCCN1C2=NC(=NC(=C2)C3(CC3)[S@](=N)(=O)C)C4=C5C=CNC5=NC=C4 [AZD6738] (first compound max 10 µM, 7x7, partner max 10 µM) . Its measured Bliss excess is -0.0321

Consider CS(=O)(=O)CCNCc1ccc(-c2ccc3ncnc(Nc4ccc(OCc5cccc(F)c5)c(Cl)c4)c3c2)o1 [Lapatinib] + C[C@@H](Oc1cc(-c2cnn(C3CCNCC3)c2)cnc1N)c1c(Cl)ccc(F)c1Cl [Crizotinib] (first compound max 10 µM, 7x7, partner max 10 µM) . Its measured Bliss excess is -0.0001

Consider NC1(C(=O)N[C@@H](CCO)c2ccc(Cl)cc2)CCN(c2ncnc3[nH]ccc23)CC1 [Capivasertib] + C[C@@H]1COCCN1C2=NC(=NC(=C2)C3(CC3)[S@](=N)(=O)C)C4=C5C=CNC5=NC=C4 [AZD6738] (first compound max 10 µM, 7x7, partner max 10 µM) . Its measured Bliss excess is 0.0305
